Where do these numbers come from? They come from ChEMBL document CHEMBL2396548.

Experiment: Displacement of [3H]prazosin from alpha-1 adrenergic receptor in porcine cerebral cortex
Format: tissue-based, Sus scrofa
property-measured: Ki (nM)

INSERT INTO assay_data (input_smiles, experimental_result) VALUES
  ('C#CC1=CC[C@H](N(CCC)CCCCNC(=O)c2ccc(-c3ccccc3)cc2)CC1', 220);

P: C#CC1=CC[C@H](N(CCC)CCCCNC(=O)c2cc3ccccc3s2)CC1
Q: C#CC1=CC[C@@H](N(CCC)CCCCNC(=O)c2cc3ccccn3n2)CC1
Min Ki? P | Q Returns: label corresponding to the selected item.
P

* * *

Test: Displacement of [3H]WAY100635 from 5-HT1A receptor in porcine cerebral cortex
Format: tissue-based, Sus scrofa
pKi: −log10 of the molar value.
property-measured: pKi

Take a look at these entries with their results.
INSERT INTO assay_data (input_smiles, experimental_result) VALUES
  ('C#CC1=CC[C@H](N(CCC)CCCCNC(=O)c2cnn3ccccc23)CC1', 7.64),
  ('C#CC1=CC[C@@H](N(CCC)CCCCNC(=O)c2cc3ccccn3n2)CC1', 6.82);

A: C#CC1=CC[C@@H](N(CCC)CCCCNC(=O)c2ccc(-c3ccccc3)cc2)CC1
B: C#CC1=CC[C@H](N(CCC)CCCCNC(=O)c2cc3ccccc3s2)CC1
C: C#CC1=CC[C@@H](N(CCC)CCCCNC(=O)c2cc3ccccc3s2)CC1
D: C#CC1=CC[C@H](N(CCC)CCCCNC(=O)c2ccc(-c3ccccc3)cc2)CC1
Ordering criterion: pKi; begin with the maximum. Please list each label once, in the requested order.
B, C, D, A

* * *

# remaining at 0.5 h, 0.05 mg/mL per record follows
Test: Metabolic stability in Sprague-Dawley rat liver microsomes assessed as compound remaining at 0.05 mg/mL after 30 mins
Assay type: ADME
Settings: read-out: Stability
Please respond with the number in % and leave the unit unwritten.

INSERT INTO measurements (compound, experimental_result) VALUES
  ('CCCN(CCc1cccs1)[C@H]1CCc2c(O)cccc2C1', 19.4);

GET /value?item= C#CC1=CCC(N(CCC)CCCCNC(=O)c2ccc(-c3ccccc3)cc2)CC1 (racemic) &field=remaining at 0.5 h, 0.05 mg/mL returns 85.3

* * *

Biological target: D(2) dopamine receptor (Homo sapiens)
Sequence (P14416 whole entry): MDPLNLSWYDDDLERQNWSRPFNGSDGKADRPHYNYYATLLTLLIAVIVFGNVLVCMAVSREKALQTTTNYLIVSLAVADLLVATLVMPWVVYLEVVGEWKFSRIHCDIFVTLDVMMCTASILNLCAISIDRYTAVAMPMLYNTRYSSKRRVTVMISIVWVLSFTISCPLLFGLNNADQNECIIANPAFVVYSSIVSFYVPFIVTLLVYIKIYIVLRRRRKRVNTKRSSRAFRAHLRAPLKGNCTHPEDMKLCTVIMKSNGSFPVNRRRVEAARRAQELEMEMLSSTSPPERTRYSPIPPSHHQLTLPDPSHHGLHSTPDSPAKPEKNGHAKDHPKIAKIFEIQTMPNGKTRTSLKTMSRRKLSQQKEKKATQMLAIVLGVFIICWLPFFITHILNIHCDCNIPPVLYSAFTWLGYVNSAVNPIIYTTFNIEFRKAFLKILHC
Assay: Displacement of [3H]spiperone from human dopamine D2S receptor expressed in CHO cells
Format: cell-based
pKi: −log10 of the molar value.
property-measured: pKi

Please review the following examples before continuing.
INSERT INTO assay_data (input_smiles, tgt, property_measured, experimental_result) VALUES
  ('C#CC1=CC[C@@H](N(CCC)CCCCNC(=O)c2cnn3ccccc23)CC1', 'D(2) dopamine receptor (Homo sapiens)', 'pKi', 7.85),
  ('C#CC1=CC[C@@H](N(CCC)CCCCNC(=O)c2cc3ccccc3s2)CC1', 'D(2) dopamine receptor (Homo sapiens)', 'pKi', 7.80),
  ('C#CC1=CC[C@@H](N(CCC)CCCCNC(=O)c2cc3ccccn3n2)CC1', 'D(2) dopamine receptor (Homo sapiens)', 'pKi', 6.55);

P: C#CC1=CC[C@H](N(CCC)CCCCNC(=O)c2cc3ccccc3s2)CC1
Q: C#CC1=CC[C@H](N(CCC)CCCCNC(=O)c2cc3ccccn3n2)CC1
Between the entries labelled P and Q , which has a larger pKi value on record? Respond using the label that marks the chosen record.
P
